system: NCI-H226; experiment: NCI tumour cell line growth inhibition, 48 h
Activity calls are given as the source filed them. Rule as the data show it: active = GI50 up to about 1.1 µM and inactive = higher.
Outcome field: choose from 1 (active), -1 (inactive)

Exam item: So what was the verdict on `Clc1ccc(NCc2nnc(COc3ccc(OCc4nnc(CNc5ccc(Cl)cc5)o4)c(Cl)c3)o2)cc1` in this test?
Marked response: -1

Exam item: Field: outcome | Entry: Nc1nc(SCCC/C=C/I)nc2c1ncn2C1OC(CO)C(O)C1O (configuration not stated)
Marked response: -1

Exam item: Test call, this compound: `Cn1c2ccccc2c2c(-c3ccccc3)cc3c(c21)C(=O)C=CC3=O`
Marked response: -1

Exam item: Record lookup: outcome of this test for CCCCC(C)C1CCC2(C)C=CC(=O)C(C)=C2C1O (configuration not stated) ?
Marked response: -1

Exam item: Test call, this compound: CC(C)=C1C(=O)C[C@@]2(C)C[C@H]3OC3(C)CC/C=C(/C)CCC12 (some centres not stated)
Marked response: -1

Exam item: # fetch the recorded call for `O=c1c(Cl)c(Cl)cnn1CCCl` here
Marked response: -1

Exam item: Call for entry `CCOC(=O)C(=CNc1ccc(S(N)(=O)=O)cc1)C(=O)OCC` :
Marked response: -1

Exam item: Which outcome was entered for the compound `COC(=O)[C@H]1CO[C@H]2C/C(C)=C/CC/C(C)=C/CC[C@@]3(C)O[C@@H]3C[C@H]21` in this test?
Marked response: -1

Exam item: Tell me the recorded outcome of this test for `CC1=CCC[C@@H]2[C@@](C)(Cc3cc(O)ccc3O)[C@H](C)CC[C@@]12C` .
Marked response: -1

Exam item: Which outcome did this test record for the compound `CCN(CC)c1ccc(/C=C/C=C2C(=O)NC(=S)NC2=O)cc1` ?
Marked response: -1

Exam item: Identify the outcome logged in this assay for the compound shown: CCCCCCCCCCC(C(=O)O)C1(C(=O)O)CCC(=O)O1 (configuration not stated)
Marked response: -1

Exam item: Answer briefly: the call reported for `COc1ccc2c(c1)/C(=C/CCN(C)C)c1ccccc1S2` in this assay.
Marked response: -1

Exam item: Lab log entry: CC(C)=CCN1c2ccccc2[C@@]2(CC=C(C)C)CCN(C)[C@@H]12 [(+)-DEBROMOFLUSTRAMINE B] — outcome as called in the assay?
Marked response: -1

Exam item: Per the records of this test, what outcome belongs to `O=c1cc(N2CCCC2)[nH]c(=O)n1-c1cccc(C(F)(F)F)c1` ?
Marked response: -1

Exam item: I would be grateful if you could indicate the recorded call for `CN1COc2c(n(C)c(=O)[nH]c2=O)C1` .
Marked response: -1

Exam item: Record lookup: outcome of this test for O=C(c1ccc(O)cc1)C1c2c3c(cc(O)c2C(c2ccc(O)cc2)C1c1cc(O)cc(O)c1)OC(c1ccc(O)cc1)C3c1cc2c(cc1O)OC(c1ccc(O)cc1)C2c1cc(O)cc(O)c1 (configuration not stated) ?
Marked response: -1

Exam item: What did this assay record as the result for `C#CCn1c(=O)c(C)cn(/C(=C\C(=O)OCC)C(=O)OCC)c1=O` ?
Marked response: -1

Exam item: Given CCCCN1/C(=N/Nc2n[nH]c(=O)c3ccccc23)SCC1c1ccc(Cl)cc1 (configuration not stated) , state the outcome it received in this test.
Marked response: -1

Exam item: What did this assay record as the result for `Nc1nc(N)c2c(Cl)c(CNc3ccc(Cl)c(Cl)c3)ccc2n1` ?
Marked response: -1

Exam item: Could you kindly confirm the outcome this assay logged for `CC(=O)/C(=N\O)C(=O)NCCc1ccccc1` ?
Marked response: -1

Exam item: Hi, do you know how `c1ccc(C[n+]2ccc3c(c2)CCCC3)cc1` came out in this test?
Marked response: -1

Exam item: Field: outcome | Entry: `C/C(=N\NC(=S)N1CCN(c2ccccn2)CC1)c1cccc(C)n1`
Marked response: -1

Exam item: Called result for `N#C/N=C(/N)NCN/C(N)=N\C#N`
Marked response: -1

Exam item: Called result for Nc1ncn([C@@H]2C=C(CO)C(O)C2O)c(=O)n1 (some centres not stated)
Marked response: -1

Exam item: Short answer needed: outcome of this test for `O=c1n(/N=C/c2ccccc2)c(=O)n2n1C1C=CC2CC1` ?
Marked response: -1

Exam item: Hey, what did the test say about `COc1ccc(-c2[nH]c3c4c(nc5c(c24)C(=O)CC(C)(C)C5)CC(C)(C)C3)cc1` ?
Marked response: -1

Exam item: Lab log entry: `CCCCCC(=O)OC[n+]1cccc(-c2c(COC(=O)NC(C)C)c(COC(=O)NC(C)C)c3n2CCC3)c1` — outcome as called in the assay?
Marked response: -1

Exam item: What is the recorded call for this compound in the test? `Oc1ccc(Cn2c(-c3ccc(O)c(O)c3)nc3ccccc32)cc1O`
Marked response: -1

Exam item: Record lookup: outcome of this test for CC(C)=CCC/C(C)=C/CC/C(C)=C/C1CCC(=O)C1(C)C (configuration not stated) ?
Marked response: -1

Exam item: Which outcome was assigned to CC1(C)OCC2OC3([C@H](O)CCO)OC(C)(C)OC3C2O1 (some centres not stated) in this test?
Marked response: -1

Exam item: Each compound tested received a call. Report the one for `COc1cccc(-c2cc(O)c3c(C)cc(C)nc3n2)c1` .
Marked response: 1

Exam item: Fill in: this test's call for `Nc1nc2cc(CNc3ccc(C(=O)O)cc3)ccc2nc1-c1ccccc1` is ___
Marked response: -1

Exam item: Please let me know the test result on file for `C#CCN(CC#C)C(=O)C(=O)c1c[nH]c2ccc(OC)cc12` .
Marked response: -1

Exam item: What did this assay record as the result for `CSCSSC` ?
Marked response: -1

Exam item: So what was the verdict on `N#C/C(C(=O)Nc1ccccc1)=C(/N)N1CCCCC1` in this test?
Marked response: -1

Exam item: Fill in: this test's call for O=C(O)c1cc2c3c(c1)[C@H]1C=CC[C@H]1CN3CC1CC=CC21 (some centres not stated) is ___
Marked response: -1

Exam item: Any idea what this test logged for `O=C1CCC2(CCC(=O)NC2=O)C(=O)N1` ?
Marked response: -1

---

system: HOP-62; test: NCI tumour cell line growth inhibition, 48 h
Activity calls are given as the source filed them. Cut-off read from the data, not from the text of the source: active = GI50 up to about 1.1 µM and inactive = higher.
Allowed answers: active, inactive

Exam item: # lookup: test call for CC(CN1NC12CCCC2)N1NC12CCCC2 (centres undefined)
Marked response: inactive

Exam item: Please share the test call associated with `CC1(C)CC[C@]2(C)CC=C3[C@]4(C)CC[C@H]5C(C)(C)C(=O)CC[C@]5(C)[C@H]4CC[C@@]3(C)[C@H]2C1` .
Marked response: inactive

Exam item: Hi, sorry to bother you, what did the test record for `CN(C)c1ccc(/N=C2/NC(=N\c3ccccc3)/C(=N/c3ccccc3)S2)cc1` ?
Marked response: inactive

Exam item: Please share the test call associated with `CSc1nc(O)c(C#N)c(-c2ccccc2)n1` .
Marked response: inactive

Exam item: How was `CC1=C(C(=O)Nc2ccccc2)C(c2ccc(Cl)c(Cl)c2)C(C(=O)Nc2ccccc2)=C(C)N1` classified in this test?
Marked response: inactive

Exam item: Tell me the assay call for `Cc1nn(CNc2ccc(F)c(Cl)c2)c(=S)n1/N=C/c1ccc(-c2ccc(Cl)cc2Cl)o1` please.
Marked response: inactive

Exam item: Dear all, I need the recorded test outcome for O=C(O)c1cc2c3c(c1)[C@H]1C=CC[C@H]1CN3CC1CC=CC21 (some centres undefined) , thank you.
Marked response: inactive

Exam item: Hi, sorry to bother you, what did the test record for `Cc1sc2nc(N(C)C)oc(=O)c2c1C` ?
Marked response: inactive

Exam item: Assay result, entry `C[C@@H]1O[C@@H](O[C@H]2CC[C@]3(C=O)[C@H]4CC[C@]5(C)[C@@H](c6ccc(=O)oc6)CC[C@]5(O)[C@@H]4CC[C@]3(O)C2)[C@H](O)[C@H](O)[C@H]1O[C@@H]1O[C@H](CO)[C@@H](O)[C@H](O)[C@H]1O` — outcome?
Marked response: active

Exam item: Record request — test call for `C/C(=N\N=C1/C(=O)OC(c2ccccc2)=C1C(=O)c1ccccc1)c1ccc([N+](=O)[O-])cc1`
Marked response: inactive

Exam item: Give the logged outcome of this assay for the following compound: `COc1ccc2c3c([nH]c2c1CC=C(C)C)C(=O)C=C(C)C3=O`
Marked response: inactive

Exam item: // outcome(item) with item = `CCCOc1cc2c(cc1O)CC[C@@H]1[C@@H]2CC[C@]2(C)[C@@H](O)CC[C@@H]12`
Marked response: inactive

Exam item: Hi, sorry to bother you, what did the test record for COc1cc(/C=C2\CCC(C)c3c2nc(N)c(C#N)c3-c2cc(OC)c(OC)c(OC)c2)cc(OC)c1OC (centres undefined) ?
Marked response: inactive

Exam item: Call for entry `CCCCCCCCC[n+]1cccc(C2C(C(=O)OCC)=C(C)NC(C)=C2C(=O)OCC)c1` :
Marked response: inactive

Exam item: Which outcome did this test record for the compound `Cc1cc(NC(=O)NC(=O)c2ccccc2NC(=O)CN(C)C)ccc1Oc1ncc(Br)cn1` ?
Marked response: inactive

Exam item: In this assay, the call recorded for `CCOC(=O)C(=CNc1ccc(S(N)(=O)=O)cc1)C(=O)OCC` was what?
Marked response: inactive

Exam item: # outcome recorded in this test, key = `NNC(=O)Nc1nc2ccc(NN)cc2[nH]1`
Marked response: inactive

Exam item: Which result was noted for this compound in the test: `CN(C)S(=O)(=O)c1ccc2c(c1)/C(=C1/Nc3ccccc3C1=O)C(=O)N2`
Marked response: inactive

Exam item: // param item: NC(CCc1ccccc1)(C(=O)O)c1ccccc1 (centres undefined) ; yields the recorded call
Marked response: inactive

Exam item: Assay outcome for `CN1COc2c(n(C)c(=O)[nH]c2=O)C1` : what was it?
Marked response: inactive

Exam item: Which outcome was entered for the compound Nc1nc(SCCC/C=C/I)nc2c1ncn2C1OC(CO)C(O)C1O (centres undefined) in this test?
Marked response: inactive

Exam item: Each compound tested received a call. Report the one for O=C1C2=C(c3ccccc31)C(c1ccc(Cl)cc1)NC(S)=N2 (centres undefined) .
Marked response: inactive

Exam item: Test call for this compound, please: CC(NC(=O)C(N)CC(=O)O)NC(=O)N(C)C(C)(C)C (centres undefined)
Marked response: inactive

Exam item: Hi, do you know how `COc1ccc(/C=C/c2cc(OC)c(OC)c(OC)c2)cc1O[Si](C)(C)C(C)(C)C` came out in this test?
Marked response: inactive

Exam item: Assay outcome for Nc1ncn([C@@H]2C=C(CO)C(O)C2O)c(=O)n1 (some centres undefined) : what was it?
Marked response: inactive

Exam item: Dear all, I need the recorded test outcome for C[C@]12CCc3nn(-c4ccccc4)nc3C1CC[C@@H]1C2CC[C@]2(C)C(=O)CCC12 (some centres undefined) , thank you.
Marked response: inactive

Exam item: GET /call?item= `C[N+](C)(Cc1ccc(NC(=O)CCCC(=O)ON2C(=O)CCC2=O)cc1)c1ccccc1` returns the recorded outcome of this test.
Marked response: active

Exam item: Would you mind telling me which call this test gave O=C(CCC(=O)Nc1ccccc1C(F)(F)F)N/N=C1\C(=N\NC(=O)CCC(=O)Nc2ccccc2C(F)(F)F)C(c2ccc3c(c2)OCO3)Oc2ccccc21 (centres undefined) ?
Marked response: inactive

Exam item: Outcome logged for `O=c1cc(N2CCCC2)[nH]c(=O)n1-c1cccc(C(F)(F)F)c1` in this assay:
Marked response: inactive

Exam item: Record request — test call for `Nc1c([N+](=O)[O-])nc(Cl)c2nncn12`
Marked response: inactive

Exam item: Entry `Cc1cc(S(=O)(=O)O)c(NC(=O)C(=O)Cc2cc(=O)oc3cc(O)ccc23)cc1Cl` : call = ?
Marked response: inactive

Exam item: Entry `Cc1csc2nc(-c3ccc([N+](=O)[O-])cc3)c(/C=N/N=C(N)N)n12` : call = ?
Marked response: inactive

Exam item: Status in this test for `O=[N+]([O-])c1ccc(N/N=C2\C=CCCC2)c([N+](=O)[O-])c1` ?
Marked response: inactive

Exam item: Test call for this compound, please: `CON(C)C(=O)CNC(=O)OCC1c2ccccc2-c2ccccc21`
Marked response: inactive

Exam item: Dear colleague, could you share the recorded outcome for CC12CC(C/C1=N/O)C(C)(C)C2 (centres undefined) when you have a moment?
Marked response: inactive

Exam item: Just curious, what result did COC(=O)C(=Cc1cc(OC)c(OC)c(OC)c1-c1cc2c(cc1C1(C)OCCS1)OCO2)C(=O)OC (centres undefined) get here?
Marked response: inactive

Exam item: Short answer needed: outcome of this test for `CC(=O)/C(=N\O)C(=O)NCCc1ccccc1` ?
Marked response: inactive

Exam item: Each compound tested received a call. Report the one for `COC(=O)C1=C(C(=O)OC)C(N(C)C)C(C(=O)OC)=C(C(=O)OC)S1` .
Marked response: inactive

Exam item: Assay outcome for `Cc1c2ccnc(-c3ccccc3)c2cc2c1[nH]c1ccccc12` : what was it?
Marked response: inactive
